# melting point annotations

Check out these entries, answers already filled in.
>>> print(df.to_string())
                                   compound            val
0  Cc1c(NC(=O)c2ccc(-c3ccc(C(F)(F)F)cc3)cc2F)ccc2cc(CN3CCCC3)cnc12  202 to 203 °C
1  CCOC(=O)c1ccc2[nH]c(C(=O)OCc3ccccc3)cc2c1         123 °C
2  O=C(NCc1ccc(F)cc1-n1cncn1)c1nc2n(c(=O)c1OCc1ccccc1)CCN2c1ccccc1  187 to 190 °C

Request: For the compound CN(CCOc1ccc(CC(F)C(N)=O)cc1)c1nc2ccccc2o1 (stereo not given) , give its measured melting point value.
Result: 168 to 170 °C

Request: For the compound "CNC(=O)c1cccc(F)c1Nc1nc(Nc2ccc3c(c2)CCCC(=O)N3CCOC)ncc1Cl" , give its measured melting point value.
Result: 146 to 147 °C

Request: For the compound "ON=Cc1cccc(Oc2ccccc2)c1" , give its measured melting point value.
Result: 45 to 46 °C

----------
# melting point annotations

>>> df
                                   molecule            val
0              Oc1ccc(CBr)cc1-n1nc2ccccc2n1  169 to 171 °C
1  N#CC(C(=O)Nc1ccccc1)C(=O)c1nn(-c2ccccc2)c2c1Cc1ccccc1-2 (stereo not given)  273 to 277 °C
2      O=C(O)c1cn(C2CC2)c2nc(Cl)c(F)cc2c1=O  209 to 212 °C
3  O=C(Nc1ccc(N2CCOCC2=O)cc1)[C@H]1CCCN1C(=O)Nc1ccc(Cl)cc1         228 °C
4  O=C(NCc1ccc(Cl)c(Cl)c1)c1cn2c(=O)n(Cc3ccc(Cl)cc3)c(=O)cc2s1  218 to 219 °C
5                    CCCn1c(SC)nc2ccsc2c1=O  142 to 144 °C

Request: For the molecule CCCOc1c(OC)cc([C@H]2CC[C@H](c3cc(OC)c(OC)c(OC)c3)O2)cc1S(=O)(=O)CCO (relative stereo) , give its measured melting point value.
Result: 141 to 142 °C

Request: For the molecule OC(CNCCNc1ncnc2[nH]ncc12)COc1ccccc1 (stereo not given) , give its measured melting point value.
Result: 142 to 144 °C

Request: For the molecule "CCCCCCCCNC(=O)CC(=O)c1c2ccccc2cc2ccccc12" , give its measured melting point value.
Result: 70 to 72 °C

Request: For the molecule "O=C(O)c1cc(Cl)cc2c1CCCC2" , give its measured melting point value.
Result: 130 to 140 °C

----------
ENDPOINT: melting point

Check out these entries, answers already filled in.
In [3]: df
Out[3]:
                                   compound       endpoint            val
0  O=C(O)c1cc(-n2c(-c3ccc(Br)cc3)cc3c2CCC3)ccc1O  melting point  215 to 216 °C
1       O=S1(=O)N=CN(C2CCCCC2)c2cc(Cl)ccc21  melting point  189 to 191 °C
2        COc1nc2ncccc2c2nc(S(=O)(=O)Cl)nn12  melting point  172 to 174 °C
3                   COc1ccc2c(=O)[nH]ncc2c1  melting point  200 to 205 °C
4                O=C(O)c1cc(Cl)c(O)c(O)c1Cl  melting point  230 to 231 °C

Request: For the compound "CC1(C)Cc2cc(S(=O)(=O)Cl)ccc2O1" , give its measured melting point value.
Result: 75 to 77 °C

Request: For the compound "CCCc1c(OCCCOc2cccc(C(=O)O)c2)ccc(C(C)=O)c1O" , give its measured melting point value.
Result: 142 to 143 °C

Request: For the compound "CC(=O)c1cc(-c2ccncc2)sc1Oc1cc(F)ccc1F" , give its measured melting point value.
Result: 119 to 121 °C

----------
# melting point annotations

Check out these entries, answers already filled in.
>>> df
                               molecule       endpoint            val
0  COc1ccc(C(=O)Nc2ccc3ccc(CO)nc3n2)cc1  melting point         212 °C
1         COC(=O)CC(=O)C[C@@H]1CC(=O)N1  melting point  45 to 46.5 °C

Request: For the molecule OC(C1=NCCN1)(c1ccccc1)c1cccc(Cl)n1 (centres undefined) , give its measured melting point value.
Result: 154 to 156 °C

Request: For the molecule "O=C1c2ccccc2C(=O)N1Cc1noc(-c2ncn3c2[C@@H]2CCCN2C(=O)c2sccc2-3)n1" , give its measured melting point value.
Result: 248 to 250 °C

----------
ENDPOINT: melting point (°C)

>>> df
              compound  val
0  Clc1nc(Cl)c2ccsc2n1  116

1 = CCCSc1ccc(C(=O)C(=O)O)[nH]1
2 = COC(=O)c1ccc(CC(C)(C)NCC(O)c2ccccc2)cc1 (configuration not stated)
Request: Select the item whose melting point value is smaller, choosing between 1 and 2 . Bench note: the answer is the label of the chosen record.
Result: 1
(1: 87 °C, 2: 125 °C)

----------
# melting point annotations

Check out these entries, answers already filled in.
                                   molecule       endpoint            val
0  O=C(Nc1ccc(-n2nc(C3CC3)cc2C2CC2)cc1)c1ccc2nn[nH]c2c1  melting point  240 to 246 °C
1  CCOC(=O)C(=O)c1c(C(=O)OCC)n(C)c2cc(Cl)ccc12  melting point    94 to 95 °C
2  Cc1ccc2c(c1)/C(=N\NC(N)=O)C(=O)N2CCCN(C(C)C)C(C)C  melting point  145 to 148 °C
3       O=P(O)(O)COc1ccc2c(c1)[nH]c1ccccc12  melting point         291 °C
4  CC1(C(F)(F)F)C=C(C(=O)NCCC#N)c2cc([N+](=O)[O-])ccc2O1 (configuration not stated)  melting point  191 to 193 °C

Request: For the molecule "CC(C)Cc1oc(-c2ccc(F)cc2)nc1CC(=O)O" , give its measured melting point value.
Result: 125 to 126 °C

Request: For the molecule "Fc1ccc2nc(-c3ccc(Cl)cc3)cc(Cl)c2c1" , give its measured melting point value.
Result: 169 to 172 °C

Request: For the molecule "CCOC(=O)c1c(O)c2cc(C)ccc2n(C)c1=O" , give its measured melting point value.
Result: 132 °C

Request: For the molecule O=C(O)Cc1ccc2c(c1)C(O)c1ccccc1CO2 (configuration not stated) , give its measured melting point value.
Result: 132 to 134 °C

Request: For the molecule "Nc1ccc(Nc2cccc3c2C(=O)c2ccccc2C3=O)cc1" , give its measured melting point value.
Result: 175 to 182 °C

Request: For the molecule "N#CCc1c(C(=O)O)cc2ccc3c(c2c1-c1ccc(F)cc1)OCO3" , give its measured melting point value.
Result: 230 to 233 °C

Request: For the molecule COCCN1CC(C(=O)OC)N(S(=O)(=O)c2ccc(OC)cc2)Cc2ccccc21 (configuration not stated) , give its measured melting point value.
Result: 86 to 90 °C

Request: For the molecule "COC(=O)C(=NO)c1ccccc1COc1ccccc1C" , give its measured melting point value.
Result: 115 °C

Request: For the molecule O=C(O)CCCCCCC(O)C(=O)O (configuration not stated) , give its measured melting point value.
Result: 86 to 92 °C

Request: For the molecule "CCCc1nn(C)c2c(=O)n(CCOc3ccc(SC(C)(C)C(=O)O)cc3)c(CC)nc12" , give its measured melting point value.
Result: 104 to 106 °C

Request: For the molecule CC1C(=O)C2CCCCC2N2CCc3ccccc3C12 (configuration not stated) , give its measured melting point value.
Result: 144 to 148 °C

Request: For the molecule "O=C(Nc1cc(C(F)(F)F)ccc1N1CCCC1)c1ccncc1" , give its measured melting point value.
Result: 134 to 135 °C

Request: For the molecule "CCOC(=O)C1=NN(c2cccc3ccccc23)C(C(=O)OCC)=NN1c1ccccc1" , give its measured melting point value.
Result: 124 to 125 °C

Request: For the molecule NC(=O)n1c(S(=O)Cc2ccccn2)nc2ccccc21 (configuration not stated) , give its measured melting point value.
Result: 164 °C

----------
ENDPOINT: melting point

Check out these entries, answers already filled in.
In [3]: df
Out[3]:
                                   compound            val
0           O=c1oc2ccccc2c(O)c1SCCOc1ccccc1  120 to 121 °C
1  NC(=O)OCCn1cc(C(=O)O)c(=O)c2cc(F)c(N3CCNCC3)c(F)c21  204 to 206 °C
2  CCc1n[nH]c(CC)c1CCCCCCOc1ccc(OC)cc1[N+](=O)[O-]  103 to 105 °C
3  CN1C(=O)C2(COc3cc4c(cc32)OCCO4)c2c(C(=O)NCc3ccc(F)cc3)cccc21 (stereo not given)  149 to 150 °C
4  Cc1c(NC(=O)c2ccc(-c3ccc(Cl)cc3)cc2)ccc2cc(CN3CCCC3)cnc12  227 to 229 °C

Request: For the compound "O=C(O)COc1ccc(SCc2ccc(OCc3cc(Cl)ccc3Cl)cc2)c2c1CCCO2" , give its measured melting point value.
Result: 98 to 100 °C

Request: For the compound "CCCCCCCCCCCCCCCCCCOc1coc(CO)cc1=O" , give its measured melting point value.
Result: 71 to 73 °C

Request: For the compound "CN(C)C(=O)N(C)c1nc2cc(C(C)(C)C)ccc2s1" , give its measured melting point value.
Result: 107 to 108 °C

Request: For the compound "CN1C(=O)CN=C(c2ccccc2)c2cc(CN)ccc21" , give its measured melting point value.
Result: 201 °C

Request: For the compound "Cc1nc(Cl)c2cc3c(cc2n1)OCCO3" , give its measured melting point value.
Result: 168 to 170 °C
